Notes on GI50 obtained with HCT-15.

{"compound": "Cc1ccc(CCNC(=S)SCC(NC(=O)CCC(N)C(=O)O)C(=O)NCC(=O)O)cc1 (centres undefined)", "GI50": "1430 nM"}
{"compound": "CC1(C=O)CCC23COC4(CCC5C6(C)CCC(OC7OCC(OC8OC(CO)C(O)C(OC9OC(CO)C(O)C(O)C9O)C8OC8OCC(O)C(O)C8O)C(O)C7OC7OC(CO)C(O)C(O)C7O)C(C)(C)C6CCC5(C)C4(C)CC2O)C3C1 (centres undefined)", "GI50": "1530 nM"}
{"compound": "COC(=O)C12C(=O)O[C@H](C)C1(O)C(C)C(=O)N2C (some centres undefined)", "GI50": "> 100000 nM"}

Okay, now this compound:
Query :: GET /values?readout=GI50&system=HCT-15&item= O=C(O)COc1cc(-c2ccccc2)nc2cc(F)ccc12
Result :: > 100000 nM
